A collection of molecules and their measured IC50
Biological target: recombinant active human PAI-1 (Homo sapiens)
Sequence (P05121 24-402): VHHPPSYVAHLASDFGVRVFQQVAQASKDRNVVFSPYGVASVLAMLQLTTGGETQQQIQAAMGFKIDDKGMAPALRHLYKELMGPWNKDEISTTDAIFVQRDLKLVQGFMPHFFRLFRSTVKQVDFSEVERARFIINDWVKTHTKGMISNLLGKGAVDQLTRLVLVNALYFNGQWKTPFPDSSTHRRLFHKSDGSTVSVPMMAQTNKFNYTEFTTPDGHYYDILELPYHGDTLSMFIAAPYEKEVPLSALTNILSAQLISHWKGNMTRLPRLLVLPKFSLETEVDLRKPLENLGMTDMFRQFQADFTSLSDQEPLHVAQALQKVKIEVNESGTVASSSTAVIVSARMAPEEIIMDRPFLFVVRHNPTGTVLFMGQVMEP
Assay: Inhibition of the activity of PAI-1 (fibrin clot formation and breakdown monitored by turbidity in microplate wells; fibrinolytic activity)
Format: biochemical
Settings: in vitro, pH 7.4 phosphate buffer, clot absorbance two hours after fibrin formation, 2 nM PAI-1 solution, tissue plasminogen activator, fibrinogen, human thrombin, read-out: fibrinolytic activity IC50 (concentration of product that inhibits PAI-1 activity by 50%)
I only need the number, in µM, no unit after it.

Recorded results for 3 molecules are shown here.
{"molecule": "O=C(O)/C(=C/c1sc2cc(OCc3ccccc3)c(OCc3ccccc3)cc2c1Oc1ccc(OCc2ccccc2)cc1)c1ccncc1", "quantity.measured": "IC50", "reading": 7}
{"molecule": "COc1ccc(Oc2c(/C=C(/C(=O)O)c3ccncc3)sc3cc(OCc4ccccc4)c(OCc4ccccc4)cc23)cc1", "quantity.measured": "IC50", "reading": 13}
{"molecule": "O=C(O)/C(=C/c1sc2cc(OCc3ccccc3)c(OCc3ccccc3)cc2c1Oc1ccc(-c2ccncc2)cc1)c1ccncc1 [Example 66]", "quantity.measured": "IC50", "reading": 2.2}

# input for lookup
Record COc1cc2sc(/C=C(/C(=O)O)c3ccncc3)c(Oc3cccnc3)c2cc1OCc1ccccc1 [Example 67] , field IC50: 5
